Catalogue of koff readings, one per entry.
testedOn: T1, human transferrin receptor (recombinant, for surface plasmon resonance) (human, UniProt P02786 89-760)
T1 construct: also called huTfR; human transferrin receptor-biotinylated
assayRemarks: SPR 25C
// units = s⁻¹; emit number, no label

2/99 VH2/VL12 (antibody, V domains shown) VH: EVQLVETGGGLIQPGGSLRLSCAASGFSLSSYAMSWVRQAPGKGLEWVGYIWSGGSTDYADSVKGRFTISRDNSKNTLYLQMNSLRAEDTAVYYCARRYGTSYPDYGDANGFDPWGQGTLVTVSS VL: DIQMTQSPSSLSASVGDRVTITCRASQSISSYLAWYQQKPGKAPKLLIYRASTLASGVPSRFSGSRSGTDFTLTISSLQPEDFATYYCQQHYSSSNVDNTFGGGTKVEIK : 0.00814

Query block: Specify koff for 2/99 VH8/VL3 (antibody, V domains shown) VH: QQLVETGGGLIQPGGSLRLSCAASGFSLSSYAMSWVRQAPGKGLEWIGYIWSGGSTDYASWAKGRFTISKTSTTLYLQMNSLRAEDTAVYYCARRYGTSYPDYGDANGFDPWGQGTLVTVSS VL: AYQMTQSPSSLSASVGDRVTITCRASQSISSYLNWYQQKPGKAPKLLIYRASTLASGVPSRFSGSGSGTDFTLTISSLQPEDFATYYCQQSYSSSNVDNTFGGGTKVEIK and stop.
Result block: 0.001

Query block: Note koff for the binder shown: 2/99 VH17/VL15 (antibody, V domains shown) VH: QQLQESGPGLVKPSETLSLTCTVSGFSLSSYAMSWVRQPPGKGLEWIGYIWSGGSTDYNPSLKSRVTISKDTSKNQVSLKLSSVTAADTAVYYCARRYGTSYPDYGDANGFDPWGPGTLVTVSS VL: DIVMTQSPDSLAVSLGERATINCKSSQSISSYLIWYQQKPGQPPKLLIYRASTLASGVPDRFSGSGSGTDFTLTISSLQAEDVAVYYCQQAYSSSNVDNTFGGGTKVEIK
Result block: 0.00156

Query block: Please report the measured koff for 2/99 VH8/VL6 (antibody, V domains shown) VH: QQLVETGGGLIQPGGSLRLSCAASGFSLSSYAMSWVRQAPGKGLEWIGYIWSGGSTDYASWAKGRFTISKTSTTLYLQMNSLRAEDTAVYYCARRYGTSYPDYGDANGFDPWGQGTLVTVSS VL: AIQLTQSPSSLSASVGDRVTITCRASQSISSYLSWYQQKPGKAPKLLIYRASTLASGVPSRFSGSGSGTDFTLTISSLQPEDFATYYCQQSYSSSNVDNTFGGGTKVEIK
Result block: 0.0014
